Here's a batch of molecules along with measured IC50 for UniProt P04483.
Answers are plain numbers, in nM.

Here is how some molecules turned out for IC50.
>>> number("C=C1c2cccc(O)c2C(=O)C2=C(O)[C@]3(O)C(=O)C(C(N)=O)=C(O)[C@@H](N(C)C)[C@@H]3[C@@H](O)[C@H]12")
114
>>> number("CN(C)c1ccc(O)c2c1C[C@H]1C[C@H]3[C@H](N(C)C)C(O)=C(C(N)=O)C(=O)[C@@]3(O)C(O)=C1C2=O")
94.9
>>> number("CN(C)[C@@H]1C(O)=C(C(N)=O)C(=O)[C@@]2(O)C(O)=C3C(=O)c4c(O)ccc(Cl)c4[C@@H](O)[C@H]3C[C@@H]12")
66.7
>>> number("CN(C)[C@@H]1C(O)=C(C(N)=O)C(=O)[C@@]2(O)C(O)=C3C(=O)c4c(O)cccc4C[C@H]3C[C@@H]12")
106
>>> number("CN(C)[C@@H]1C(O)=C(C(N)=O)C(=O)[C@@]2(O)C(O)=C3C(=O)c4c(O)ccc(Cl)c4[C@@](C)(O)[C@H]3C[C@@H]12")
167
>>> number("CN(C)[C@@H]1C(O)=C(C(N)=O)C(=O)[C@@]2(O)C(O)=C3C(=O)c4c(O)cccc4[C@@](C)(O)[C@H]3C[C@@H]12")
146
>>> number("C[C@H]1c2cccc(O)c2C(=O)C2=C(O)[C@]3(O)C(=O)C(C(N)=O)=C(O)[C@@H](N(C)C)[C@@H]3[C@@H](O)[C@@H]21")
82.4
>>> number("CN(C)[C@@H]1C(O)=C(C(N)=O)C(=O)[C@@]2(O)C(O)=C3C(=O)c4c(O)cccc4[C@@](C)(O)[C@H]3[C@H](O)[C@@H]12")
130
>>> number("CN(C)c1cc(NC(=O)CNC(C)(C)C)c(O)c2c1C[C@H]1C[C@H]3[C@H](N(C)C)C(O)=C(C(N)=O)C(=O)[C@@]3(O)C(O)=C1C2=O")
52.6

--- query ---
The reported IC50 value, UniProt P04483, for CN(C)[C@@H]1C(O)=C(C(=O)NCNCCCC[C@H](N)C(=O)O)C(=O)[C@@]2(O)C(O)=C3C(=O)c4c(O)cccc4[C@@](C)(O)[C@H]3C[C@@H]12 reads 92.3

###

target: TetR mutant (Escherichia coli, UniProt P04483, H139W); construct: made in house; host or cells: E. coli Rosetta-gami(BL21), vector pET28a; experiment: Surface plasmon resonance affinity, TetR mutant; assay type: binding; conditions: KD (equilibrium dissociation constant, Kd/Ka), TetR mutant+Mg2+, SPR
Kindly state pKd for each of the entries shown.
One number for each entry, as −log10 of the molar value.

Here is how some compounds turned out for pKd.
>>> number("CN(C)[C@@H]1C(O)=C(C(N)=O)C(=O)[C@@]2(O)C(O)=C3C(=O)c4c(O)cccc4C[C@H]3C[C@@H]12 [SC, Sancycline]")
9.38
>>> number("CN(C)[C@@H]1C(O)=C(C(N)=O)C(=O)[C@@]2(O)C(O)=C3C(=O)c4c(O)cccc4[C@@](C)(O)[C@H]3C[C@@H]12 [TC, tetracycline]")
7.21

Form field pKd, entry CN(C)c1cc(NC(=O)CNC(C)(C)C)c(O)c2c1C[C@H]1C[C@H]3[C@H](N(C)C)C(O)=C(C(N)=O)C(=O)[C@@]3(O)C(O)=C1C2=O [TIC, tigecycline] : 9.98

Source: paper PMC9735679
